- Test System: recombinant PIM-1 (Homo sapiens)
- Experiment Notes: PIM-1 kinase assay
- Format: biochemical
- Experimental Setup: 15 μM ATP; read-out: PIM1: IC50 (15 μM ATP)
pIC50: −log10 of the molar value.
Readout: pIC50

INPUT: Provide value of pIC50 for this record tested with recombinant PIM-1 (Homo sapiens): `OCCNc1nc2cc(-c3nnn[nH]3)ccc2n2cccc12`
OUTPUT: 6.56

INPUT: Reported pIC50 for recombinant PIM-1 (Homo sapiens), given `O=C(O)c1ccc2c(c1)nc(Nc1ccc(F)c(Cl)c1)c1cccn12` ?
OUTPUT: 7.15

[I] O=C(O)c1ccc2c(c1)nc(NCCN1CCCC1)c1cccn12
[II] CCN1CCCC1CNc1nc2cc(C(=O)O)ccc2n2cccc12 (centres unmarked)
[III] O=C(O)c1ccc2c(c1)nc(Nc1cc(F)cc(Cl)c1)c1cccn12
INPUT: # desc sort on pIC50 across 3 molecules Put the labels in the order asked and list them.
OUTPUT: III, II, I

###

- Test System: recombinant PIM-1 (Homo sapiens, UniProt P11309)
- Sequence (P11309 whole entry): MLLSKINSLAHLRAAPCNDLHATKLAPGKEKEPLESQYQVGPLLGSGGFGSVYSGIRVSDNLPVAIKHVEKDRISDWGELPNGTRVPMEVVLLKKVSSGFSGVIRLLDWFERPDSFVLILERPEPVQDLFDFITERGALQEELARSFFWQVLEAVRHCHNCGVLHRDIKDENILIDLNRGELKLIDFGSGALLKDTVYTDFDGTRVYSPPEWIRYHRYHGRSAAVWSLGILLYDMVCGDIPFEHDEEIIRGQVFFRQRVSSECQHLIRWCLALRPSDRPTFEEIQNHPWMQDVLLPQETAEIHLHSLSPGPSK
- Experiment Notes: PIM-1 kinase assay
- Type: biochemical
- Experimental Setup: 500 nM compound; read-out: PIM1: % inh 500 nM
- Experimental: The following procedure was used to assay the PIM-1 kinase activity of compounds of the invention. Other methods for assaying PIM-1 and other PIM kinases, as well as methods to assay for activity against various kinases known in the art. In a final reaction volume of 50 ul, recombinant PIM-1 (1 ng) was incubated with 12 mM MOPS pH 7.0, 0.4 mM EDTA, glycerol 1%, brij 35 0.002%, 2-mercaptoethanol 0.02%, BSA 0.2 mg/ml, 100 uM KKRNRTLTK, 10 mM MgAcetate, 15 uM ATP, [γ-^33P-ATP] […]
Readout: inhibition at 0.5 µM (%)

// worked examples, inhibition at 0.5 µM included
INPUT: Form field - read-out: inhibition at 0.5 µM; system: recombinant PIM-1 (Homo sapiens, UniProt P11309); submitted item: `O=C(O)c1ccc2c(c1)nc(Nc1ccccc1)c1cccn12`
OUTPUT: 73.1

INPUT: Lookup: inhibition at 0.5 µM / recombinant PIM-1 (Homo sapiens, UniProt P11309) / `COc1ccc(Nc2nc3cc(-c4nnn[nH]4)ccc3n3cccc23)cc1Cl`
OUTPUT: 19.4

INPUT: Query inhibition at 0.5 µM on recombinant PIM-1 (Homo sapiens, UniProt P11309) for `COc1ccc(OC)c(Nc2nc3cc(-c4nnn[nH]4)ccc3n3cccc23)c1`
OUTPUT: 10.9

INPUT: Lookup: inhibition at 0.5 µM / recombinant PIM-1 (Homo sapiens, UniProt P11309) / `COc1cccc(Nc2nc3cc(-c4nnn[nH]4)ccc3n3cccc23)c1`
OUTPUT: 15

INPUT: Observed inhibition at 0.5 µM on recombinant PIM-1 (Homo sapiens, UniProt P11309) for `O=C(O)c1ccc2c(c1)nc(NCCO)c1cccn12` , please.
OUTPUT: 35

[I] NC(=O)c1cc(F)cc(Nc2nc3cc(C(=O)O)ccc3n3cccc23)c1
[II] O=C(O)c1ccc2c(c1)[nH]c(=O)c1cccn12
[III] O=c1[nH]c2cc(-c3nnn[nH]3)ccc2n2cccc12
[IV] CN(c1ccccc1)c1nc2cc(-c3nnn[nH]3)ccc2n2cccc12
[V] CN(C)CCNC(=O)c1ccc2c(c1)[nH]c(=O)c1cccn12
INPUT: Place the items in sequence of falling inhibition at 0.5 µM. Reply: labels, ordered per the request.
OUTPUT: I, III, II, IV, V

[a] O=C(O)c1ccc2c(c1)nc(NCC(F)(F)F)c1cccn12
[b] c1ccc(Nc2nc3cc(-c4nnn[nH]4)ccc3n3cccc23)cc1
INPUT: Between item a and item b , which reported inhibition at 0.5 µM is smaller? Select an item and report its label.
OUTPUT: a

###

- Test System: recombinant PIM-1 (Homo sapiens, UniProt P11309)
- Experiment Notes: PIM-1 kinase assay
- Type: biochemical
- Experimental Setup: 500 nM compound; read-out: PIM1: % inh 500 nM
Readout: inhibition at 0.5 µM (%)

Known results for compounds:
INPUT: // lookup inhibition at 0.5 µM for `CCOC(=O)c1ccc2c(c1)[nH]c(=O)c1cccn12`
OUTPUT: 14

INPUT: Item `O=C(O)c1ccc2c(c1)nc(NCCn1cccc1)c1cccn12` has what recorded inhibition at 0.5 µM?
OUTPUT: 50.1

INPUT: Please give the measured inhibition at 0.5 µM for this compound: `Cc1ccccc1Nc1nc2cc(-c3nnn[nH]3)ccc2n2cccc12`
OUTPUT: 52.4

[a] O=C(O)c1ccc2c(c1)nc(Nc1ccc(F)c(Cl)c1)c1cccn12
[b] O=C(O)c1ccc2c(c1)nc(NCCN1CCOCC1)c1cccn12
[c] O=C(c1ccc2c(c1)[nH]c(=O)c1cccn12)N1CCNCC1
[d] O=C(O)c1ccc2c(c1)nc(NCCC(F)(F)F)c1cccn12
INPUT: Sort (4 compounds) by inhibition at 0.5 µM: min first. Please reply with the labels ordered as requested. Many thanks.
OUTPUT: c, b, d, a
(c: -11.8%, b: 18.9%, d: 46%, a: 91.4%)

###

- Test System: recombinant PIM-1 (Homo sapiens)
- Experiment Notes: PIM-1 kinase assay
- Assay type: biochemical
- Experimental Setup: 500 nM compound; read-out: PIM1: % inh 500 nM
Readout: inhibition at 0.5 µM (%)

INPUT: I would be grateful if you could share the reported inhibition at 0.5 µM for CCN1CCCC1CNc1nc2cc(C(=O)O)ccc2n2cccc12 (centres unmarked) .
OUTPUT: 89.7

INPUT: Give the measured inhibition at 0.5 µM of `Fc1cccc(Nc2nc3cc(-c4nnn[nH]4)ccc3n3cccc23)c1` .
OUTPUT: 70

INPUT: inhibition at 0.5 µM for `N#Cc1cccc(Nc2nc3cc(C(=O)O)ccc3n3cccc23)c1` ?
OUTPUT: 92.3

[A] O=C(O)c1ccc2c(c1)nc(NCCN1CCCC1)c1cccn12
[B] CCOC(=O)c1ccc2c(c1)nc(Nc1ccc(F)c(Cl)c1)c1cccn12
INPUT: Choose between A and B : whose measured inhibition at 0.5 µM value is numerically larger? Answer with the label corresponding to your selection.
OUTPUT: A

###

- Test System: recombinant human CK2 (Homo sapiens, UniProt P68400)
- Sequence (P68400 whole entry): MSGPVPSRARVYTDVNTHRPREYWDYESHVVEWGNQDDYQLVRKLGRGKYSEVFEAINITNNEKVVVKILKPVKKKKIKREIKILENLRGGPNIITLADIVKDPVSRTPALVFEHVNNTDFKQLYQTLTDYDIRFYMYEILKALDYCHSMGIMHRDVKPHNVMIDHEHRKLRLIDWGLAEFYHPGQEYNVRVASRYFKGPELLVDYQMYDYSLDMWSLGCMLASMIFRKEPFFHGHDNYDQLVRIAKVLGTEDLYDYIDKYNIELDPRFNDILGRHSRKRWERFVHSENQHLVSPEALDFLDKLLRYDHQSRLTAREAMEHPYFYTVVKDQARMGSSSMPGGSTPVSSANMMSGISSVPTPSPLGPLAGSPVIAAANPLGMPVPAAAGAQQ
- Sequence (P67870 whole entry partner): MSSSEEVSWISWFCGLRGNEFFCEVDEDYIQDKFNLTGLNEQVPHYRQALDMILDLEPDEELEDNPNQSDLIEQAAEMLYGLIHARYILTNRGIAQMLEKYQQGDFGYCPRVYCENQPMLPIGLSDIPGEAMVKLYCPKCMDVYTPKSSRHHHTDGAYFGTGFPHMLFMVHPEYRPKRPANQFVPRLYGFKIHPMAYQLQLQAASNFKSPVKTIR
- Experiment Notes: cell-free CK2 assay
Listing of recorded IC50 by entry.

INPUT: API: value(readout= IC50, system= recombinant human CK2 (Homo sapiens, UniProt P68400), query= `Clc1ccccc1Nc1nc2c(-c3nnc[nH]3)cccc2n2cccc12` )
OUTPUT: < 100 nM

INPUT: Please provide the recorded IC50 for `CN(C)CCNc1nc2c(-c3nnc[nH]3)cccc2n2cccc12` , tested on recombinant human CK2 (Homo sapiens, UniProt P68400).
OUTPUT: > 5000 nM

INPUT: I'm curious: which IC50 was measured for `CCOC(=O)c1cccc2c1[nH]c(=O)c1cccn12` tested on recombinant human CK2 (Homo sapiens, UniProt P68400)?
OUTPUT: > 5000 nM

INPUT: Lab note: need IC50 with recombinant human CK2 (Homo sapiens, UniProt P68400) for entry `Oc1cccc(Nc2nc3c(-c4nnc[nH]4)cccc3n3cccc23)c1` , please look it up.
OUTPUT: < 1000 nM

INPUT: Please state recorded IC50 (tested on recombinant human CK2 (Homo sapiens, UniProt P68400)) of `c1cc(-c2nnc[nH]2)c2nc(Nc3nccs3)c3cccn3c2c1`
OUTPUT: < 5000 nM

INPUT: Missing value: IC50, recombinant human CK2 (Homo sapiens, UniProt P68400), entry `Brc1cccc(Nc2nc3c(-c4nnc[nH]4)cccc3n3cccc23)c1` . Fill in?
OUTPUT: < 100 nM

INPUT: Recall the recorded IC50 for `O=C(O)c1cccc2c1nc(Nc1ccccc1F)c1cncn12` with recombinant human CK2 (Homo sapiens, UniProt P68400) and state it.
OUTPUT: < 1000 nM

###

- Test System: recombinant PIM-1 (Homo sapiens, UniProt P11309)
- Experiment Notes: PIM-1 kinase assay
- Assay type: biochemical
- Experimental Setup: Table 5; read-out: PIM1 IC50
pIC50: −log10 of the molar value.
Listed compounds paired with reported pIC50

Would you please look over these solved cases?
INPUT: Item: `NC(=O)c1cccc2c1nc(Nc1ccccc1Cl)c1cccn12` Test system: recombinant PIM-1 (Homo sapiens, UniProt P11309) Read-out: pIC50 Value: ?
OUTPUT: > 7.00

INPUT: Form field: pIC50 recorded for `O=C(O)c1cccc2c1[nH]c(=O)c1cccn12` with recombinant PIM-1 (Homo sapiens, UniProt P11309) (enter value)
OUTPUT: < 5.60

INPUT: Lab note: need pIC50 for `Brc1cccc(Nc2nc3c(-c4nnc[nH]4)cccc3n3cccc23)c1` on recombinant PIM-1 (Homo sapiens, UniProt P11309), anyone have it?
OUTPUT: > 7.00

INPUT: Recorded pIC50 for `Fc1ccccc1Nc1nc2c(-c3nnc[nH]3)cccc2n2cccc12` with recombinant PIM-1 (Homo sapiens, UniProt P11309), please?
OUTPUT: > 7.00

INPUT: Give the reported pIC50 for `Oc1cccc(Nc2nc3c(-c4nnc[nH]4)cccc3n3cccc23)c1` (system: recombinant PIM-1 (Homo sapiens, UniProt P11309)).
OUTPUT: > 7.00

New cases:
INPUT: For recombinant PIM-1 (Homo sapiens, UniProt P11309), provide pIC50 of `Fc1ccc(Nc2nc3c(-c4nnc[nH]4)cccc3n3cccc23)c(F)c1` please.
OUTPUT: > 7.00

INPUT: Any idea what pIC50 came out for `Clc1cccc(Nc2nc3c(-c4nnc[nH]4)cccc3n3cccc23)c1` on recombinant PIM-1 (Homo sapiens, UniProt P11309)?
OUTPUT: > 7.00

INPUT: Which measured pIC50 belongs to `COc1ccc(Sc2nc3c(-c4nnc[nH]4)cccc3n3cccc23)cc1` , tested on recombinant PIM-1 (Homo sapiens, UniProt P11309)?
OUTPUT: > 7.00

INPUT: Notebook entry, recombinant PIM-1 (Homo sapiens, UniProt P11309) assay: pIC50 of `CN(C)CCNc1nc2c(-c3nnc[nH]3)cccc2n2cccc12` = ?
OUTPUT: < 5.60

INPUT: What pIC50 appears in the records for this compound with recombinant PIM-1 (Homo sapiens, UniProt P11309)? `Clc1ccccc1Nc1nc2c(-c3nnc[nH]3)cccc2n2cccc12`
OUTPUT: > 7.00

# credit: patent US20100298302A1
